- TEST NAME: Cardioprotective effect in Langendorff perfused guinea pig spontaneously beating […] assessed as atrioventicular conduction time at 0.001 uM (RVb = 50 to 55 +/- 1 to 4 ms)
- Format: functional
- MEASUREMENT SETUP: Cavia porcellus
Each entry below carries its reported AV conduction time.
Expressed in ms, but write only the number.

# example entries with known answers
[
  {
    "MOLECULE": "C=C[C@H]1CN2CC[C@H]1C[C@@H]2[C@@H](O)c1ccnc2ccc(OC)cc12",
    "AV conduction time / ms": 53
  },
  {
    "MOLECULE": "Cc1cccc(C)c1NCC[C@@H]1CCCN2CCCC[C@H]12",
    "AV conduction time / ms": 53
  },
  {
    "MOLECULE": "Cc1cccc(C)c1NCCSC[C@@H]1CCCN2CCCC[C@H]12",
    "AV conduction time / ms": 55
  },
  {
    "MOLECULE": "CCCCc1oc2ccccc2c1C(=O)c1cc(I)c(OCCN(CC)CC)c(I)c1",
    "AV conduction time / ms": 54
  }
]

stdin: Specify reported AV conduction time for the molecule shown: COc1cc(NC(C)=O)c(Cl)cc1C(=O)NC[C@@H]1CCCN2CCCC[C@H]12
stdout: 52

stdin: Specify reported AV conduction time for the molecule shown: Cc1cccc(C)c1NC(=O)CSC[C@@H]1CCCN2CCCC[C@H]12 [LUPINYLTHIOACETYLANILIDE]
stdout: 52

stdin: Specify reported AV conduction time for the molecule shown: Cc1cc(C(=O)c2ccccc2)ccc1NC(=O)C[C@@H]1CCCN2CCCC[C@H]12
stdout: 54

###

- Test system: Heart
- TEST NAME: Cardioprotective effect in Langendorff perfused guinea pig spontaneously beating […] assessed as heart rat at 10 uM (RVb = 175 to 190 +/- 5 to 11 bpm)
- Format: functional, Cavia porcellus
REPORTED PROPERTY: Activity (bpm)
Expressed in bpm, but write only the number.

stdin: Specify reported Activity for the compound shown: Cc1cccc(C)c1NC(=O)CSC[C@@H]1CCCN2CCCC[C@H]12 [LUPINYLTHIOACETYLANILIDE]
stdout: 156

stdin: Specify reported Activity for the compound shown: COc1cc(NC(C)=O)c(Cl)cc1C(=O)NC[C@@H]1CCCN2CCCC[C@H]12
stdout: 165

stdin: Specify reported Activity for the compound shown: Cc1cc(C(=O)c2ccccc2)ccc1NC(=O)C[C@@H]1CCCN2CCCC[C@H]12
stdout: 137

stdin: Specify reported Activity for the compound shown: Cc1cccc(C)c1NCC[C@@H]1CCCN2CCCC[C@H]12
stdout: 136

stdin: Specify reported Activity for the compound shown: Cc1cccc(C)c1NCCSC[C@@H]1CCCN2CCCC[C@H]12
stdout: 142

###

- TEST NAME: Cardioprotective effect in Langendorff perfused guinea pig spontaneously beating […] assessed as duration of ventricular action potential at 0.01 uM (RVb = 140 to 161 +/- 2 to 8 ms)
- Type: functional, Cavia porcellus, Cardiac ventricle
Each entry below carries its reported Activity.
Expressed in ms, but write only the number.

[
  {
    "MOLECULE": "Cc1cc(C(=O)c2ccccc2)ccc1NC(=O)C[C@@H]1CCCN2CCCC[C@H]12",
    "REPORTED PROPERTY": "Activity",
    "UNITS LABEL": "ms",
    "ENDPOINT RESULT": 154
  }
]

stdin: Specify reported Activity for the molecule shown: COc1cc(NC(C)=O)c(Cl)cc1C(=O)NC[C@@H]1CCCN2CCCC[C@H]12
stdout: 141

FYI, the data here is from ChEMBL document CHEMBL1177711.
